System under test: KHK-C expressed in NRK-52E cells (Homo sapiens (Human), UniProt P50053)
Sequence (P50053 whole entry): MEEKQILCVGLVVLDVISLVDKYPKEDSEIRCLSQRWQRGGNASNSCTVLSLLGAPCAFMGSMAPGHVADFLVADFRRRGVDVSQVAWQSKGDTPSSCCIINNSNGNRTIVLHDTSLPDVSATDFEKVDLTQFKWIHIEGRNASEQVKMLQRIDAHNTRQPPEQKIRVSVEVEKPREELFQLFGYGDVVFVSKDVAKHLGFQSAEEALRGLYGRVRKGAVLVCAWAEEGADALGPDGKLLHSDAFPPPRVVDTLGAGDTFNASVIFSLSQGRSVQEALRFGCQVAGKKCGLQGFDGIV
Assay comment: KHK-C Cell-based Assay (EC50), NRK CTG, fructose-mediated ATP-depletion
Measurement kind: log10(EC50) (log10 of the value in nM)
In plain terms, each number is the log10 of measured EC50 in nM.

compound="C[C@H]1[C@H](O)CN1c1nc(-c2ccc(C(=O)NCC#N)cc2)c2c(n1)C(F)(F)CC2 [Example 737]" endpoint_result=2.38
compound="C[C@H]1[C@H](O)CN1c1nc(-c2ccc([C@]3(N)CCS(=O)(=O)C3)cc2)c2c(n1)C(F)(F)CC2 (single isomer, unassigned) [Example 795]" endpoint_result=1.74
compound="C[C@H]1CCN1c1nc2c(c(-c3ccc4[nH]c(=O)n(C)c4c3)n1)CCC2 [Example 251]" endpoint_result=2.39
compound="C[C@H]1[C@H](O)CN1c1nc2c(c(-c3ccc(CN)cc3)n1)CCC2 [Example 202]" endpoint_result=2.05
compound="C[C@H]1CCN1c1nc2c(c(-c3ccc(C(O)C(F)(F)F)cc3)n1)CCC2 (stereo in doubt) [Example 265]" endpoint_result=2.85

Entry C[C@H]1CCN1c1nc2c(c(-c3cc4c(N)nccc4s3)n1)CCC2 [Example 446] , KHK-C expressed in NRK-52E cells (Homo sapiens (Human), UniProt P50053) data, log10(EC50) value: 0.70

Entry C[C@H]1[C@H](O)CN1c1nc(-c2ccc(C3(N)CS(=O)(=O)C3)cc2)c2c(n1)C(F)(F)CC2 [Example 491] , KHK-C expressed in NRK-52E cells (Homo sapiens (Human), UniProt P50053) data, log10(EC50) value: 1.55

Entry C[C@@H](NS(C)(=O)=O)c1cccc(-c2nc(N3CC[C@@H]3C)nc3c2CCC3(F)F)c1 [Example 749] , KHK-C expressed in NRK-52E cells (Homo sapiens (Human), UniProt P50053) data, log10(EC50) value: 1.84

Entry C[C@H]1CCN1c1nc2c(c(-c3ccc4c(c3)C(=O)NCCO4)n1)CCC2 [Example 150] , KHK-C expressed in NRK-52E cells (Homo sapiens (Human), UniProt P50053) data, log10(EC50) value: 1.86

Entry C[C@H]1CCN1c1nc2c(c(-c3ccc4ccc(=O)[nH]c4c3)n1)CCC2 [Example 132] , KHK-C expressed in NRK-52E cells (Homo sapiens (Human), UniProt P50053) data, log10(EC50) value: 2.12

---

System under test: UniProtKB P50053
Assay comment: KHK Biochemical Assay (IC50), ADP-Glo, KHK-A
Settings: ADP-Glo; average of at least two separate assays
Catalogue of IC50 values
// return numeric value only (unit: nM, not printed)

compound="C[C@H]1CCN1c1nc2c(c(-c3cccc(C(=O)N[C@H]4CC[C@@H]4O)c3)n1)CCC2 (racemic)" units_text=nM endpoint_result=42.9
compound="C[C@H]1CCN1c1nc2c(c(-c3ccc(C(O)C(F)F)cc3)n1)CCC2 (stereo partly shown)" units_text=nM endpoint_result=519

# evaluate next
Entry C[C@H]1CCN1c1nc2c(c(-c3nc4cc(F)ccc4n3C)n1)CCC2 , UniProtKB P50053 data, IC50 value: 4220

---

System under test: KHK-C expressed in NRK-52E cells (Homo sapiens (Human))
Assay comment: KHK-C Cell-based Assay (EC50), NRK CTG, fructose-mediated ATP-depletion
Measurement kind: EC50 (nM)
// return numeric value only (unit: nM, not printed)

Sample records with EC50:
compound="C[C@H]1CCN1c1nc2c(c(-c3cccc([C@@H]4[C@@H](C(=O)O)C4(C)C)c3)n1)CCC2 [Example 435]" endpoint_result=78.4
compound="C[C@H]1CCN1c1nc2c(c(-c3cccc(S(C)(=O)=O)c3)n1)CCC2 [Example 399]" endpoint_result=138
compound="C[C@H]1CCN1c1nc2c(c(-c3ccc(C(N)=O)c(NS(C)(=O)=O)c3)n1)CCC2 [Example 320]" endpoint_result=638
compound="C[C@H]1CCN1c1nc(-c2cc(F)c3c(c2)OCCNC3=O)c2c(n1)C(F)(F)CC2 [Example 747]" endpoint_result=15.1

Just so you know, measured EC50 for C[C@H]1[C@H](O)CN1c1nc(-c2ccc3c(c2)OCC3NS(C)(=O)=O)c2c(n1)C(F)(F)CC2 (mixture of isomers) [Example 465] came out at 14.9

Just so you know, measured EC50 for C[C@H]1[C@H](O)CN1c1nc(-c2ccc(OC(F)(F)F)c(S(C)(=N)=O)c2)c2c(n1)C(F)(F)CC2 (stereo partly shown) [Example 564] came out at 98.1

---

Catalogue of pKa values
Assay comment: pKa analysis by capillary electrophoresis (pKa PRO Analyzer, co-solvent method)
Type: physicochemical
Settings: methanol/aqueous co-solvent buffers, co-solvent method (60% to 30% methanol buffers), pH range 1.7-11.2, read-out: 1st pKa
Lab note: write the figure by itself, no unit.

Sample records with pKa:
compound="C[C@H]1CCN1c1nc2c(c(-c3ccc(CNS(C)(=O)=O)s3)n1)CCC2 [Example 460]" endpoint_result=4.66
compound="C[C@H]1CCN1c1nc2c(c(-c3cn(C4CNC4)nn3)n1)CCC2 [Example 461]" endpoint_result=3.9
compound="C[C@H]1[C@H](O)CN1c1nc(-c2ccc(C3(F)CNC3)cc2)c2c(n1)C(F)(F)CC2 [Example 512]" endpoint_result=7.8

Just so you know, measured pKa for C[C@H]1CCN1c1nc2c(c(-c3cn[nH]c3)n1)CCC2 [Example 19] came out at 4.88

Just so you know, measured pKa for C[C@H]1CCN1c1nc2c(c(-c3ccc(N4CCNCC4)cc3)n1)CCC2 [Example 50] came out at 4.8

---

System under test: human KHK-C (Homo sapiens (Human), UniProt P50053)
Sequence (P50053 whole entry): as above
Assay comment: KHK Biochemical Assay (IC50), ADP-Glo, KHK-C
Settings: average of at least two separate assays
Sorting guide: entries reporting IC50 beneath 6 nM go in the yes pile, the rest go in the no pile.

compound=C[C@H]1[C@H](F)CN1c1nc(-c2ccc(C3(N)COC3)cc2)c2c(n1)C(F)(F)CC2 system_under_test="human KHK-C (Homo sapiens (Human), UniProt P50053)" class_label=yes
compound="CC1OC[C@]2(COc3cc(-c4nc(N5C[C@@H](O)[C@@H]5C)nc5c4CCC5(F)F)ccc32)NC1=O (single isomer, unassigned)" system_under_test="human KHK-C (Homo sapiens (Human), UniProt P50053)" class_label=no
compound=C[C@H]1[C@H](O)CN1c1nc(-c2cccc(N=S3(=O)CCCC3)c2)c2c(n1)C(F)(F)CC2 system_under_test="human KHK-C (Homo sapiens (Human), UniProt P50053)" class_label=no
compound="C[C@H]1CCN1c1nc(-c2cccc(N=[S@@](C)(N)=O)c2)c2c(n1)C(F)(F)CC2 (single isomer, unassigned)" system_under_test="human KHK-C (Homo sapiens (Human), UniProt P50053)" class_label=no

Please state whether IC50 is below 6 nM for C[C@H]1CCN1c1nc(-c2ccc3c(c2)C(NS(C)(=O)=O)CC3)c2c(n1)C(F)(F)CC2 (stereo partly shown) yes

Please state whether IC50 is below 6 nM for C[C@H]1CCN1c1nc2c(c(-c3ccc(C(N)CS(C)(=O)=O)cc3)n1)CCC2 (stereo partly shown) no

---

System under test: human KHK-C (Homo sapiens (Human))
Assay comment: KHK Biochemical Assay (IC50), ADP-Glo, KHK-C
Settings: ADP-Glo; average of at least two separate assays
pIC50: −log10 of the molar value.
Label 1 when pIC50 >= 7; otherwise 0.

Completed entries (count: 5):
molecule=C[C@H]1[C@H](O)CN1c1nc2c(c(-c3ccc4c(c3)C(=O)N(C)C4)n1)CCC2 system_under_test="human KHK-C (Homo sapiens (Human))" class_label=1
molecule=Cc1nc2cc(-c3nc(N4CC[C@@H]4C)nc4c3CCC4)ccc2c(=O)[nH]1 system_under_test="human KHK-C (Homo sapiens (Human))" class_label=1
molecule="C[C@H]1[C@H](O)CN1c1nc(-c2ccc3c(c2)OC[C@@]32NC(=O)N(C)C2=O)c2c(n1)C(F)(F)CC2 (single isomer, unassigned)" system_under_test="human KHK-C (Homo sapiens (Human))" class_label=1
molecule=C[C@H]1CCN1c1nc2c(c(-c3cccc(-c4ccn[nH]4)c3)n1)CCC2 system_under_test="human KHK-C (Homo sapiens (Human))" class_label=0
molecule=COc1ccc(-c2nc(N3C[C@@H](O)[C@@H]3C)nc3c2CCC3(F)F)cc1S(C)(=O)=O system_under_test="human KHK-C (Homo sapiens (Human))" class_label=1

Is it the case that NC(=O)c1ccc(-c2nc(N3CCn4cncc43)nc3c2CCC3)cc1 has pIC50 reaching or exceeding 7? 0
